- Tested on: serum albumin
- protocol_description: Cellulose-immobilized 13-mer peptide variants incubated with serum albumin (negative control), anti-human IgG-AP detection
- Format: binding
- Parameters: key: No binding of immunoglobulin for the defined peptide variant, detection negative: 0; Binding of immunoglobulin for the defined peptide variant, detection positive: +
- protocol_conditions: blocking buffer without addition, 3 h room temperature
Bridge positions count the residues as written; N and C are the ends. Square brackets hold non-standard residues; d marks the D form. Ends that are not written are not given here. cellulose = not defined here; βAla = NCCC(=O)O
Listing of entries alongside the reported Result for incubation with serum albumin (immunoglobulin binding detection).
Keep it simple and answer with nothing but the number.

Ask: Any idea what Result for incubation with serum albumin (immunoglobulin binding detection) was measured for 02K: cellulose-bound 13-mer variant DKAWHLGELVWCT-(βA)(βA) (DKAWHLGELVWCT[βAla][βAla]; not fully specified; printed as DKAWHLGELVWCT-(βA)(βA); also: cellulose-bound) ?
Reply: 0

Ask: Given 11G: cellulose-bound 13-mer variant DCAWHLGELVGCT-(βA)(βA) , state its recorded Result for incubation with serum albumin (immunoglobulin binding detection).
Reply: 0

Ask: Which Result for incubation with serum albumin (immunoglobulin binding detection) value is on record for 09A: cellulose-bound 13-mer variant DCAWHLGEAVWCT-(βA)(βA) (DCAWHLGEAVWCT-{βAla-βAla-cellulose}; disulfide 2-12 (inferred); reading uncertain; also: printed as DCAWHLGEAVWCT-(βA)(βA)) ?
Reply: 0

###

- Test system: immunoglobulins in human plasma
- protocol_description: Cellulose-immobilized 13-mer peptide variants incubated with human plasma, anti-human IgG-AP detection
- Format: binding
- Parameters: key: No binding of immunoglobulin for the defined peptide variant, detection negative: 0; Binding of immunoglobulin for the defined peptide variant, detection positive: +
- protocol_conditions: human plasma as sample, diluted 1:10,000 in blocking buffer, 3 h room temperature
Bridge positions count the residues as written; N and C are the ends. Square brackets hold non-standard residues; d marks the D form. Ends that are not written are not given here. cellulose = not defined here; βAla = NCCC(=O)O
readout_name: Result for incubation with human plasma (immunoglobulin binding detection)

Consider the reported Result for incubation with human plasma (immunoglobulin binding detection) for these substances:
| substance | observed_value |
| --- | --- |
| 09G: cellulose-bound 13-mer variant DCAWHLGEGVWCT-(βA)(βA) (DCAWHLGEGVWCT-{βAla-βAla-cellulose}; disulfide 2-12 (inferred); reading uncertain; also: printed as DCAWHLGEGVWCT-(βA)(βA)) | 0 |
| 04V: cellulose-bound 13-mer variant DCAVHLGELVWCT-(βA)(βA) (disulfide 2-12 (inferred); not fully specified (N-terminus, C-terminus); printed as DCAVHLGELVWCT-(βA)(βA); also: cellulose-bound) | + |
| 09R: cellulose-bound 13-mer variant DCAWHLGERVWCT-(βA)(βA) (DCAWHLGERVWCT-{βAla-βAla-cellulose}; disulfide 2-12 (inferred); reading uncertain; also: printed as DCAWHLGERVWCT-(βA)(βA)) | + |
| 07L: cellulose-bound 13-mer variant DCAWHLLELVWCT-(βA)(βA) (DCAWHLLELVWCT-{βAla-βAla-cellulose}; disulfide 2-12 (inferred); not fully specified (N-terminus); printed as DCAWHLLELVWCT-(βA)(βA); reading uncertain) | 0 |
| 06E: cellulose-bound 13-mer variant DCAWHEGELVWCT-(βA)(βA) (DCAWHEGELVWCT[βAla][βAla]; disulfide 2-12 (inferred); not fully specified (N-terminus); printed as DCAWHEGELVWCT-(βA)(βA); also: cellulose-bound) | 0 |
| 03E: cellulose-bound 13-mer variant DCEWHLGELVWCT-(βA)(βA) (DCEWHLGELVWCT-{βAla-βAla-cellulose}; disulfide 2-12 (inferred); reading uncertain; also: printed as DCEWHLGELVWCT-(βA)(βA)) | 0 |
| 11Q: cellulose-bound 13-mer variant DCAWHLGELVQCT-(βA)(βA) | 0 |

Now look at this entry.
Ask: # lookup: Result for incubation with human plasma (immunoglobulin binding detection) of 02P: cellulose-bound 13-mer variant DPAWHLGELVWCT-(βA)(βA) (DPAWHLGELVWCT[βAla][βAla]; not fully specified; printed as DPAWHLGELVWCT-(βA)(βA); also: cellulose-bound)
Reply: 0

###

- Tested on: human IgG-Fc
- protocol_description: Cellulose-immobilized 13-mer peptide variants incubated with human IgG-Fc, anti-human IgG-AP detection
- Type: binding
- Parameters: key: No binding of immunoglobulin for the defined peptide variant, detection negative: 0; Binding of immunoglobulin for the defined peptide variant, detection positive: +
- protocol_conditions: IgG-Fc 1 μg/ml in blocking buffer, 3 h room temperature
Bridge positions count the residues as written; N and C are the ends. Ends that are not written are not given here. cellulose = not defined here; βAla = NCCC(=O)O
Below is a list of entries, each paired with its recorded Result for incubation with human IgG-Fc (immunoglobulin binding detection) value.
// response body must contain only the number

Solved cases below.
| substance | observed_value |
| --- | --- |
| 05D: cellulose-bound 13-mer variant DCAWDLGELVWCT-(βA)(βA) (disulfide 2-12 (inferred); not fully specified (N-terminus, C-terminus); printed as DCAWDLGELVWCT-(βA)(βA); also: cellulose-bound) | 0 |
| 04A: cellulose-bound 13-mer variant DCAAHLGELVWCT-(βA)(βA) (DCAAHLGELVWCT-{βAla-βAla-cellulose}; disulfide 2-12 (inferred); reading uncertain; also: printed as DCAAHLGELVWCT-(βA)(βA)) | 0 |

Ask: Entry 05W: cellulose-bound 13-mer variant DCAWWLGELVWCT-(βA)(βA) (disulfide 2-12 (inferred); not fully specified (N-terminus, C-terminus); printed as DCAWWLGELVWCT-(βA)(βA); also: cellulose-bound) : reported Result for incubation with human IgG-Fc (immunoglobulin binding detection) = ?
Reply: 0

###

- Tested on: serum albumin
- protocol_description: Cellulose-immobilized 13-mer peptide variants incubated with serum albumin (negative control), anti-human IgG-AP detection
- Assay type: binding
- Design: key: No binding of immunoglobulin for the defined peptide variant, detection negative: 0; Binding of immunoglobulin for the defined peptide variant, detection positive: +
- protocol_conditions: blocking buffer without addition, 3 h room temperature
Bridge positions count the residues as written; N and C are the ends. Square brackets hold non-standard residues; d marks the D form. Ends that are not written are not given here. cellulose = not defined here; βAla = NCCC(=O)O
readout_name: Result for incubation with serum albumin (immunoglobulin binding detection)
Form: value (number only, do not type unit).

| substance | observed_value |
| --- | --- |
| 08P: cellulose-bound 13-mer variant DCAWHLGPLVWCT-(βA)(βA) (DCAWHLGPLVWCT-{βAla-βAla-cellulose}; disulfide 2-12 (inferred); not fully specified (N-terminus); printed as DCAWHLGPLVWCT-(βA)(βA); reading uncertain) | 0 |

Here is another substance to look at.
Ask: Please state recorded Result for incubation with serum albumin (immunoglobulin binding detection) (tested on serum albumin) of 02M: cellulose-bound 13-mer variant DMAWHLGELVWCT-(βA)(βA) (DMAWHLGELVWCT[βAla][βAla]; not fully specified; printed as DMAWHLGELVWCT-(βA)(βA); also: cellulose-bound)
Reply: 0

###

- Test system: human IgG-Fc
- protocol_description: Cellulose-immobilized 13-mer peptide variants incubated with human IgG-Fc, anti-human IgG-AP detection
- Format: binding
- Parameters: key: No binding of immunoglobulin for the defined peptide variant, detection negative: 0; Binding of immunoglobulin for the defined peptide variant, detection positive: +
- protocol_conditions: IgG-Fc 1 μg/ml in blocking buffer, 3 h room temperature
Bridge positions count the residues as written; N and C are the ends. Square brackets hold non-standard residues; d marks the D form. Ends that are not written are not given here. cellulose = not defined here; βAla = NCCC(=O)O
# key: entry, value: Result for incubation with human IgG-Fc (immunoglobulin binding detection)
// print number alone

Study these solved cases before continuing.
| substance | observed_value |
| --- | --- |
| 01I: cellulose-bound 13-mer variant ICAWHLGELVWCT-(βA)(βA) (ICAWHLGELVWCT-{βAla-βAla-cellulose}; disulfide 2-12 (inferred); reading uncertain; also: printed as ICAWHLGELVWCT-(βA)(βA)) | 0 |
| 02S: cellulose-bound 13-mer variant DSAWHLGELVWCT-(βA)(βA) (DSAWHLGELVWCT[βAla][βAla]; not fully specified; printed as DSAWHLGELVWCT-(βA)(βA); also: cellulose-bound) | 0 |

Ask: Can you look up the measured Result for incubation with human IgG-Fc (immunoglobulin binding detection) of 03M: cellulose-bound 13-mer variant DCMWHLGELVWCT-(βA)(βA) (DCMWHLGELVWCT-{βAla-βAla-cellulose}; disulfide 2-12 (inferred); reading uncertain; also: printed as DCMWHLGELVWCT-(βA)(βA)) for me?
Reply: 0

###

- System: human IgG-Fc
- protocol_description: Cellulose-immobilized 13-mer peptide variants incubated with human IgG-Fc, anti-human IgG-AP detection
- Format: binding
- Design: key: No binding of immunoglobulin for the defined peptide variant, detection negative: 0; Binding of immunoglobulin for the defined peptide variant, detection positive: +
- protocol_conditions: IgG-Fc 1 μg/ml in blocking buffer, 3 h room temperature
Bridge positions count the residues as written; N and C are the ends. Ends that are not written are not given here. cellulose = not defined here; βAla = NCCC(=O)O
Reported Result for incubation with human IgG-Fc (immunoglobulin binding detection) values are given for each entry in this list.
Field format: numeric only.

| substance | observed_value |
| --- | --- |
| 12K: cellulose-bound 13-mer variant DCAWHLGELVWKT-(βA)(βA) (DCAWHLGELVWKT-{βAla-βAla-cellulose}; not fully specified; printed as DCAWHLGELVWKT-(βA)(βA); reading uncertain) | 0 |

Note: attention shifts to another entry.
Ask: Sample 05V: cellulose-bound 13-mer variant DCAWVLGELVWCT-(βA)(βA) (disulfide 2-12 (inferred); not fully specified (N-terminus, C-terminus); printed as DCAWVLGELVWCT-(βA)(βA); also: cellulose-bound) — what was its Result for incubation with human IgG-Fc (immunoglobulin binding detection)?
Reply: 0
